Catalogue of TGI readings, one per entry.
- System: SK-MEL-2 melanoma
- Assay info: NCI tumour cell line growth inhibition, 48 h
Result type: TGI

- O=C(N/C(=C/c1cccc([N+](=O)[O-])c1)c1nc2ccc(Cl)cc2[nH]1)c1ccccc1: 50.3 µM
- COc1cccc2cc(C(=O)NC34CC5CC(CC(C5)C3)C4)c(=N)oc12: > 100 µM
- C1=NCCOCCN=Cc2ccc(cc2)OCc2cccc(n2)COc2ccc1cc2: > 100 µM
- Cc1ccc(C(=O)N/N=C2/C(=O)c3c4ccccc4cc4cccc2c34)cc1: > 100 µM
- Cc1ccc(O)c(NC2=C(Cl)C(=O)N(Cc3ccccc3)C2=O)c1: 39 µM
- CCN(CC)c1ccc(N=Nc2ccc(-c3nc4cccn(C)c-4n3)cc2)cc1: 35.3 µM
- Oc1c(O)c(Cl)c(Cl)c(Cl)c1Cl: 15.2 µM
- COc1ccc(-c2nc(N)c(C#N)c3c2CCOc2c-3ccc3ccccc23)cc1: > 100 µM
- COc1ccc2oc(C(=O)N3CC(CCl)c4ccc(N)cc43)cc2c1 (stereo unspecified): 0.72 µM
- CC(C)C(=S)N(C)O: 72.3 µM
- CC12CCC(CC1(Cl)Cl)C2 (stereo unspecified): > 100 µM

====

- Test system: LOX IMVI melanoma
- Assay info: NCI tumour cell line growth inhibition, 48 h; in the data active = GI50 below about 0.43 µM; inactive = the rest
Classes used: active, inactive

* Nc1nc2c(ccc3ccccc32)s1 | inactive
* Cn1cc(C2=C(c3ccccc3C(F)(F)F)C(=O)NC2=O)c2ccccc21 | inactive
* CCC[CH2][Sn]([CH2]CCC)([O]C(=O)c1cccc(F)c1F)[O]C(=O)c1cccc(F)c1F | inactive
* Cc1cn2c(/C=N/N=C(N)N)c(-c3ccncc3)nc2s1 | inactive
* COc1cccc(NC(=O)c2sc3nc4c(cc3c2N)C(O)CCC4)c1 (centres undefined) | inactive
* Cn1cncc1-c1c(F)cncc1NC(=O)c1c(N)nn2cc(F)cnc12 | active
* O=C([CH-]C(=O)c1ccccc1)c1ccccc1.O=C([CH-]C(=O)c1ccccc1)c1ccccc1.O=C([CH-]C(=O)c1ccccc1)c1ccccc1.[Cl-].[Zr+4] | inactive
* Cc1noc(C)c1-c1cnc2c(-c3ccc(C(=O)O)cc3)cn([C@@H](C)c3ccccn3)c2c1 | active
* COc1cc(Nc2ncnc(Nc3ccc4c(n3)NC(=O)C(C)(C)O4)n2)cc(OC)c1OC | inactive

====

Each entry below lists one item and its recorded TGI value.
- System: 786-0 renal
- Assay info: NCI tumour cell line growth inhibition, 48 h
Result type: TGI

• CCOC(=O)C1=C(C(=O)OCC)C2(c3ccccc3)N(O1)c1ccccc1C2(C)C (stereo not given) = > 100 µM
• C[n+]1ccccc1/C1=c2\cc/c([nH]2)=C(\c2cccc[n+]2C)C2=N/C(=C(/c3cccc[n+]3C)C3C=CC(N3)/C(c3cccc[n+]3C)=C3/C=CC1=N3)C=C2 = > 100 µM
• CC(=O)n1nc(-c2ccc3ccccc3c2)nc1C = > 100 µM
• COc1ccc2c(c1OC)C(=O)O[C@@H]2[C@H]1c2c(cc3c(c2OC)OCO3)CCN1C = > 100 µM
• CC(=O)c1c(O)n(-c2ccc(C)cc2)c(=O)c2c(N)n[nH]c12 = > 100 µM

====

TGI values for the compounds below.
- Tested on: CAKI-1 renal
- Assay info: NCI tumour cell line growth inhibition, 48 h
Result type: TGI

- COC(=O)C1(O)C(c2ccccc2)NC2(C)CCCC21 (stereo not drawn): > 100 µM
- COc1cc(NC(C)CCCNC(C)C)c2ncccc2c1OC (stereo not drawn): > 100 µM
- COc1ccc(CCN2C(=O)CC34C=CC(CC3C2=O)O4)cc1OC (stereo not drawn): > 100 µM
- COc1cc(-c2nccc3cc4c(cc23)OCO4)cc(OC)c1OC: 10.5 µM
- NCCNC(=O)CN(CC(=O)O)C1CCCCC1N(CC(=O)O)CC(=O)O (stereo not drawn): > 100 µM
- C[n+]1ccccc1/C1=c2\cc/c([nH]2)=C(\c2cccc[n+]2C)C2=N/C(=C(/c3cccc[n+]3C)C3C=CC(N3)/C(c3cccc[n+]3C)=C3/C=CC1=N3)C=C2: > 100 µM
- C[n+]1cn(-c2nc3ccccc3nc2[N-]S(=O)(=O)c2ccccc2)c2ccccc21: > 100 µM
- C=C(C)C(=O)OC1C[C@H](COC(C)=O)C2CC=C(CO)C2C2OC(=O)C(=C)[C@H]12 (stereo partly drawn): > 100 µM
- S=C(CSc1ccccc1)Nc1cccc2ccccc12: > 100 µM
- O=[N+]([O-])C(C(Cl)=C(Cl)Cl)=C(n1cncn1)n1cncn1: 11.4 µM
- CC12OC(C(=O)C13CCC3)C1C(=O)c3ccc4c(ccc5ccccc54)c3C(=O)C12 (stereo not drawn): 12.7 µM
- NCCOc1ncccc1/C=C1\c2ccccc2-c2ccc([N+](=O)[O-])cc21: 0.231 µM
- O=C(/C=C\n1cnc(-c2cc(C(F)(F)F)cc(C(F)(F)F)c2)n1)N1CC(F)(F)C1: 6.84 µM
- CCOC(=O)c1nc2cc(C(F)(F)F)ccc2nc1Oc1ccc(F)cc1: > 100 µM
- CC1(C)OC2OC(COC(=O)c3ccc(C#N)cc3)C3OC(C)(C)OC3C2O1 (stereo not drawn): > 75 µM
- COc1ccc(-c2n[nH]nc2-c2cc(OC)c3c(c2)OCO3)cc1: 58.5 µM
- Cc1cc2nnc(C(N)=O)c(N)c2cc1C: > 100 µM
- COc1ccc2[nH]c(C(=O)OCc3ccc4cccc(O)c4n3)cc2c1: 2.49 µM
- CCOC(=O)C1=C(C(=O)OCC)C2(c3ccccc3)N(O1)c1ccccc1C2(C)C (stereo not drawn): > 100 µM
- CC(=O)O[C@H]1C(=O)[C@@]2(C)[C@H]([C@H](OC(=O)c3ccccc3)[C@]3(O)C[C@H](OC(=O)[C@H](O)[C@@H](NC(=O)c4ccc(N(C)C)cc4)c4ccccc4)C(C)=C1C3(C)C)[C@]1(OC(C)=O)CO[C@@H]1C[C@@H]2O: > 50 µM
- O=c1c2cccnc2ncn1CCCN1CCCC1: > 100 µM
- O=C(/C(=N/Nc1ccccc1)c1ccc([N+](=O)[O-])cc1)c1ccc([N+](=O)[O-])cc1: > 100 µM
- COC(=O)CC(C(C(C)=O)C(=O)OCc1ccccc1)N1C(=O)OC(c2ccccc2)C1c1ccccc1 (stereo not drawn): > 100 µM
